Catalogue of molecules with associated MIC
system: Acinetobacter baumannii T6474; assay: Bacterial growth minimal inhibitory concentration (broth microdilution, CLSI M7-A7); type: cell-based; conditions: Acinetobacter baumannii, T6474; cation-adjusted Mueller-Hinton Broth, microdilution; multiply-resistant (quinolone-resistant) strain; read-out: MIC for A. Baumannii T6474
Write the number in µg/mL without appending the unit.

>>> quantitative_result("C[C@@](CCn1cc2cc(C#CC#CC34CC(CO)(C3)C4)ccc2n1)(C(=O)NO)S(C)(=O)=O")
8
>>> quantitative_result("C[C@@](CCn1cc2cc(C#Cc3ccc(NC(=O)CO)c(F)c3)ccc2n1)(C(=O)NO)S(C)(=O)=O")
8
>>> quantitative_result("C[C@@](CCn1cc2cc(C#Cc3ccc(CN4CCOCC4)cc3)ccc2n1)(C(=O)NO)S(C)(=O)=O.O=CO")
0.5

QUERY: Please look up its MIC: "C[C@@](CCn1cc2cc(C#Cc3ccc(C4(O)COC4)cc3)ccc2n1)(C(=O)NO)S(C)(=O)=O"
RESULT: 0.5

QUERY: Need MIC of "COc1ccc(-c2ccc3nn(CC[C@](C)(C(=O)NO)S(C)(=O)=O)cc3c2F)c(F)c1" , thanks.
RESULT: 2

QUERY: For the molecule "C[C@@]1(C#CC#Cc2ccc3nn(CC[C@](C)(C(=O)NO)S(C)(=O)=O)cc3c2)C[C@H]1CO" , what MIC is on record?
RESULT: 32

QUERY: Sample "CN(C)CC(=O)OCC1(c2ccc(C#Cc3ccc4nn(CC[C@](C)(C(=O)NO)S(C)(=O)=O)cc4c3)cc2)CC1.Cl" — what was its MIC?
RESULT: 8

QUERY: Query (molecule): "C[C@@](CCn1cc2cc(-c3ccc(-n4nccn4)cc3)ccc2n1)(C(=O)NO)S(C)(=O)=O" ; field requested: MIC
RESULT: 1

QUERY: Record request: MIC value, item "C[C@@](CCn1cc2cc(C#Cc3ccc([C@@H](O)CO)cc3)ccc2n1)(C(=O)NO)S(C)(=O)=O"
RESULT: 8

QUERY: Which MIC value is on record for CC(CCn1cc2cc(-c3ccc(-c4ncco4)cc3)ccc2n1)(C(=O)NO)S(C)(=O)=O.O=CO (racemic) ?
RESULT: 4

QUERY: Fill in the blank: the reported MIC of "C[C@@H](O)c1ccc(C#Cc2ccc3nn(CC[C@](C)(C(=O)NO)S(C)(=O)=O)cc3c2)cc1" is ____.
RESULT: 2

QUERY: Requested read-out: MIC. Entry: "COc1ccc(-c2cc3cn(CC[C@](C)(C(=O)NO)S(C)(=O)=O)nc3cc2F)c(F)c1"
RESULT: 2

---

tested on: Acinetobacter baumannii T6474; experiment: Bacterial growth minimal inhibitory concentration (broth microdilution, CLSI M7-A7); format: cell-based; conditions: Acinetobacter baumannii, T6474; cation-adjusted Mueller-Hinton Broth, microdilution; multiply-resistant (quinolone-resistant) strain; read-out: MIC for A. Baumannii T6474
RECORDED_METRIC: MIC (µg/mL)
Entry rule: numbers only, all in µg/mL.

Sample answers from the record:
>>> quantitative_result("C[C@@](CCn1cc2c(F)c(C#CC#C[C@H]3C[C@@H]3CO)ccc2n1)(C(=O)NO)S(C)(=O)=O [Example 54]")
4
>>> quantitative_result("C[C@@](CCn1cc2cc(C#Cc3ccc(CO)cc3F)ccc2n1)(C(=O)NO)S(C)(=O)=O [Example 39]")
0.25
>>> quantitative_result("CN(C)C1(c2ccc(C#Cc3ccc4nn(CC[C@](C)(C(=O)NO)S(C)(=O)=O)cc4c3)cc2)COC1.Cc1ccc(S(=O)(=O)O)cc1 [Example 30]")
2
>>> quantitative_result("C[C@@](CCn1cc2cc(C#CC#C[C@H]3C[C@]3(F)CO)ccc2n1)(C(=O)NO)S(C)(=O)=O [Example 77]")
4
>>> quantitative_result("C[C@@](CCn1cc2cc(C#Cc3ccc([C@H]4C[C@@H]4CO)cc3)ccc2n1)(C(=O)NO)S(C)(=O)=O [Example 42]")
0.125

QUERY: For the molecule COc1ccc(-c2ccc3nn(CC[C@](C)(C(=O)NO)S(C)(=O)=O)cc3c2)c(F)c1 [Example 1] , what MIC is on record?
RESULT: 1

QUERY: Which MIC is listed for C[C@@](CCn1cc2c(F)c(C#Cc3ccc(CO)cc3)ccc2n1)(C(=O)NO)S(C)(=O)=O.O=C(O)C(F)(F)F [Example 23] ?
RESULT: 1

QUERY: # MIC lookup, item CC(CCn1cc2cc(-c3ccc(OCCN4CCOCC4)cc3F)ccc2n1)(C(=O)NO)S(C)(=O)=O.O=CO (racemic) [RE3]
RESULT: 8

QUERY: What value of MIC has been reported for the following molecule? C[C@@](CCn1cc2c(F)c(C#CC#C[C@H]3C[C@@H]3CO)ccc2n1)(C(=O)NO)S(C)(=O)=O (relative stereo) [Example 18]
RESULT: 4

QUERY: Request the reported MIC associated with C[C@@](CCn1cc2cc(C#Cc3cncnc3)ccc2n1)(C(=O)NO)S(C)(=O)=O [Example 59]
RESULT: 8

QUERY: Suppose we examine the molecule C[C@@](CCn1cc2cc(/C=C/c3ccccc3)ccc2n1)(C(=O)NO)S(C)(=O)=O [Example 17] ; what MIC value has been reported?
RESULT: 1
